system: proteinase K; test: Proteolytic stability of compound assessed as proteinase K (unknown origin)-mediated drug degradation at 0.4 mM by measuring half life measured after 24 hrs by RP-HPLC analysis; format: ADME; conditions: human
VALUE KIND: half-life at 400 µM (min)
Numbers only, in min.

CCCCCCCCCCCCCCCC(=O)N[C@H](C(=O)N[C@H](Cc1ccc(O)cc1)C(=O)N[C@@H](CCC(N)=O)C(=O)N[C@@H](CCC(=O)O)C(=O)N[C@@H](CC(C)C)C(=O)N[C@@H](CCCNC(=N)N)C(=O)N[C@@H](CCCNC(=N)N)C(=O)N[C@H](C(=O)NCC(=O)N[C@@H](CC(=O)O)C(=O)N[C@@H](CCC(=O)O)C(=O)N[C@@H](Cc1ccccc1)C(=O)O)[C@@H](C)CC)[C@@H](C)CC : 519
CCCCCCCCCCCCCCCC(=O)N[C@H](C(=O)N[C@H](C)C(=O)N[C@@H](CCC(N)=O)C(=O)N[C@@H](CCC(=O)O)C(=O)N[C@@H](CC(C)C)C(=O)N[C@@H](CCCNC(=N)N)C(=O)N[C@@H](CCCNC(=N)N)C(=O)N[C@H](C(=O)NCC(=O)N[C@@H](CC(=O)O)C(=O)N[C@@H](CCC(=O)O)C(=O)N[C@@H](Cc1ccccc1)C(=O)O)[C@@H](C)CC)[C@@H](C)CC : 901

Here are 3 compounds. What values of half-life at 400 µM were reported for them?
1. CCCCCCCCCCCCCCCC(=O)N[C@H](C(=O)N[C@@H](C(=O)N[C@@H](CCC(N)=O)C(=O)N[C@@H](CCC(=O)O)C(=O)N[C@@H](CC(C)C)C(=O)N[C@@H](CCCNC(=N)N)C(=O)N[C@@H](CCCNC(=N)N)C(=O)N[C@H](C(=O)NCC(=O)N[C@@H](CC(=O)O)C(=O)N[C@@H](CCC(=O)O)C(=O)N[C@@H](Cc1ccccc1)C(=O)O)[C@@H](C)CC)C(C)C)[C@@H](C)CC
2. CCCCCCCCCCCCCCCC(=O)N[C@H](C(=O)N[C@@H](C)C(=O)N[C@@H](CCC(N)=O)C(=O)N[C@@H](CCC(=O)O)C(=O)N[C@@H](CC(C)C)C(=O)N[C@@H](CCCNC(=N)N)C(=O)N[C@@H](CCCNC(=N)N)C(=O)N[C@H](C(=O)NCC(=O)N[C@@H](CC(=O)O)C(=O)N[C@@H](CCC(=O)O)C(=O)N[C@@H](Cc1ccccc1)C(=O)O)[C@@H](C)CC)[C@@H](C)CC
3. CCCCCCCCCCCCCCCC(=O)N[C@H](C(=O)N[C@@H](C)C(=O)N[C@H](CCC(N)=O)C(=O)N[C@@H](CCC(=O)O)C(=O)N[C@@H](CC(C)C)C(=O)N[C@@H](CCCNC(=N)N)C(=O)N[C@@H](CCCNC(=N)N)C(=O)N[C@H](C(=O)NCC(=O)N[C@@H](CC(=O)O)C(=O)N[C@@H](CCC(=O)O)C(=O)N[C@@H](Cc1ccccc1)C(=O)O)[C@@H](C)CC)[C@@H](C)CC

A)
1. 736
2. 159
3. 193

###

assay: Stability in rat plasma assessed as half life; format: ADME, cell-free
VALUE KIND: half-life (days)
One number for each entry, in days.

Q) Report half-life for CCCCCCCCCCCCCCCC(=O)N[C@H](C(=O)N[C@H](Cc1ccc(O)cc1)C(=O)N[C@@H](CCC(N)=O)C(=O)N[C@@H](CCC(=O)O)C(=O)N[C@@H](CC(C)C)C(=O)N[C@@H](CCCNC(=N)N)C(=O)N[C@@H](CCCNC(=N)N)C(=O)N[C@H](C(=O)NCC(=O)N[C@@H](CC(=O)O)C(=O)N[C@@H](CCC(=O)O)C(=O)N[C@@H](Cc1ccccc1)C(=O)O)[C@@H](C)CC)[C@@H](C)CC please.
A) 4.11
